Test system: SK-OV-3 ovarian
Experiment: NCI-60 one-dose screen, 48 h
Details: 10 µM unless noted
About 83,000 compounds went through this panel and 20% of them were active in at least one assay; those are over-represented in the sample as a whole. Active and inactive are the calls of the source. Rule for the calls: active = growth percent below 10; inactive = the rest.
Answer with one of the outcomes TRUE = active, FALSE = inactive

Example entries and their recorded answers appear below.
- molecule: "COc1ccc(-c2cc(C(=O)N3N=C(c4ccc(N)cc4)CC3c3ccc(Cl)cc3)c3cc(OC)ccc3n2)cc1 (centres undefined)"
  assigned-class: "FALSE"
- molecule: "C=C(C)[C@@H]1CC[C@]2(CO)CC[C@]3(C)[C@H](CC[C@@H]4[C@@](C)(CCCN)[C@H](C(=C)C)CC[C@]43C)[C@@H]12"
  assigned-class: "TRUE"
- molecule: "COc1cc(-c2ccc(-c3ccc(C(=N)N)cc3)s2)cc(OC)c1OC"
  assigned-class: "FALSE"

From here, focus on the item given below.
q: Name the outcome recorded for CC1(C)N=C(N)N=C(N)N1c1ccc(S(=O)(=O)Nc2nccs2)cc1 in the assay.
a: FALSE

---

System: COLO 205 colon
Assay: NCI-60 one-dose screen, 48 h
Details: 10 µM unless noted
Compounds without any hit were thinned out: in the full panel of roughly 83,000, 20% have a hit. Activity calls are given as the source filed them. How the source made its calls: active means growth percent below 10; inactive means the rest.
Answer with one of the outcomes y for active, n for inactive

Example entries and their recorded answers appear below.
- compound: "O=C(O)CCCCCCCCCCN1C(=O)/C(=C2/C(=O)N(CC(=O)O)c3ccc(Br)cc32)SC1=S"
  assigned-class: "n"
- compound: "Cc1ccc(S(=O)(=O)OC[C@]23CCC(C)(C)C[C@H]2C2=CC[C@@H]4[C@@]5(C)CCCNC(C)(C)[C@@H]5CC[C@@]4(C)[C@]2(C)CC3)cc1"
  assigned-class: "y"
- compound: "NS(=O)(=O)c1ccc(C(=O)N=Nc2c(O)[nH]c3ccc(Cl)cc23)cc1"
  assigned-class: "n"
- compound: "COc1cc(/C=C/C(=O)c2cc(OC)c(OC)c(OC)c2)ccc1Oc1nc2c(c(=O)n(C)c(=O)n2C)n1C"
  assigned-class: "y"
- compound: "Clc1cccc(C2Cc3cnccc3-c3[nH]c4ccncc4c32)c1 (stereo unspecified)"
  assigned-class: "n"
- compound: "Nc1ncccc1O"
  assigned-class: "n"

From here, focus on the item given below.
q: Name the outcome recorded for CC(C)NS(=O)(=O)/N=C1\NC(=O)NC1=C(Cl)Cl in the assay.
a: n

---

System: SNB-75 CNS
Experiment: NCI-60 one-dose screen, 48 h (100 = growth as untreated, 0 = no growth, -100 = all killed)
Conditions: 10 µM unless noted
Experimental: Growth inhibition of the SNB-75 human tumor cell line is measured as a screen for anti-cancer activity. Cells are grown in 96 well plates and exposed to the test compound for 48 hours. Compounds are tested at a single concentration, which is 10^-5 M for most compounds. The reported endpoint is percent growth (GI% or GIPRCNT), where numbers from 0 - 100% represent growth inhibition, and numbers from -100% - 0 represent cell death. For example, a value of 40 represents 60% growth inhibition. […]
Compounds without any hit were thinned out: in the full panel of roughly 83,000, 20% have a hit.
measure-name: growth (%)
Number only, in %; omit the unit.

Examples with answers:
- compound: "O=CCCCOCc1ccccc1"
  growth / %: 87.8
- compound: "CC1(C)N=C(N)N=C(N)N1c1cc(Cl)ccc1Cl"
  growth / %: 118
- compound: "CCN(CC)CCOc1ccc(/C(=C(\\C)Cc2ccc(OC)cc2)c2ccc(OC(=O)NCc3ccccc3)cc2)cc1"
  growth / %: 59.4
- compound: "Cn1c2ccccc2c2c3c(c4c5cc(Br)ccc5n(C)c4c21)C(=O)N(O)C3=O"
  growth / %: 38.9

The recorded growth for COc1cc2c(c(OC)c1OC)C(=O)CC(c1cccc(C(=O)Nc3ccccc3Br)c1)O2 (stereo not drawn) is 76.2

The recorded growth for COc1ccccc1S(=O)(=O)Nc1ccc2c3c(cc(CCC(=O)NCCCCNc4cccc5c4C(=O)N(C4CCC(=O)NC4=O)C5=O)cc13)C(=O)N2C (stereo not drawn) is -26.1

The recorded growth for CC[C@H](Nc1nc(N)nc(C)c1C#N)c1nc2cccc(CN(C)c3ncc(C(=O)NO)cn3)c2c(=O)n1-c1ccccc1 is 29.1

The recorded growth for O=C(/C=C/c1ccccc1)c1cccc2ccccc12 is 17.4

The recorded growth for COc1ccc(C2[C@@H](c3ccccc3)C(=O)N2c2cc(OC)c(OC)c(OC)c2)cc1F (stereo partly drawn) is 66.2

The recorded growth for CCN(CC)CCn1c2ccc(OC)cc2c2sc3cc(O)ccc3c(=O)c21 is 78.8

The recorded growth for COc1cc(/C=C/c2cc(/C=C/c3ccc(O)c(OC)c3)n(C(=O)Nc3ccc(Cl)cc3)n2)ccc1O is 18.7

The recorded growth for COc1cc(/C=C/C(=O)c2cccc(-n3cc(-c4ccc(Cl)cc4)[nH]c3=O)c2)ccc1O is 50.3

The recorded growth for O=C1/C(=C/c2cccc(Br)c2)COc2ccc(O)cc21 is 64.4

The recorded growth for O=C(c1cccc(N2CCOCC2)n1)c1c[nH]c2ccccc12 is 82

The recorded growth for C=C(C)[C@@H]1CC[C@]2(C(=O)N3CCNCC3)CC[C@]3(C)[C@H](CC[C@@H]4[C@@](C)(CCC(=O)N5CCNCC5)[C@H](C(=C)C)CC[C@]43C)[C@@H]12 is 86.3

The recorded growth for CC1(C)CC[C@]2(CO)CC[C@]3(C)[C@](O)([C@H](O)C[C@@H]4[C@@]5(C)CCCNC(C)(C)[C@@H]5CC[C@]43C)[C@@H]2C1 is 88.7

The recorded growth for N#Cc1c(-c2ccccc2)nc2c(c(-c3ccccc3)nn2-c2ccccc2)c1-c1ccc(N2CCCCC2)cc1 is 84.2

The recorded growth for O=C1NC(=O)C(c2coc3cc(Br)ccc23)=C1c1c[nH]c2ccccc12 is -2.44

The recorded growth for Cc1cc(C)c2c(c1)N(C)c1ncnc(-n3c(C)nc4cc(C)ccc43)c1CC2C (stereo not drawn) is 29.4

The recorded growth for CC(C)Cc1nc(Nc2ccccc2)[nH]c(=O)c1C#N is 62.4

The recorded growth for COc1ccc(C2CC(c3ccccc3)=NN2C(=O)c2cc(OC)c(OC)c(OC)c2)cc1O (stereo not drawn) is 34.7

The recorded growth for COc1cc(C=Nc2oc(-c3ccccc3)c(-c3ccccc3)c2C#N)cc(CN2CCCC2)c1O is 66.8

The recorded growth for COCCn1cc(-c2nc(-c3c[nH]c4ncccc34)cs2)c2ccccc21 is 47.2

The recorded growth for Cc1c2ccccc2nc2cc3c(cc12)[C@H]1CC[C@]2(C)C(=O)CC[C@H]2[C@@H]1CC3 is 66.4

The recorded growth for COc1cc(Cc2cc(-c3ccccc3)nn(Cc3ccccc3)c2=O)cc(OC)c1OC is 61

The recorded growth for CCn1cc(Cc2cc(C(=O)Nc3cc4cc(OC)c(OC)cc4c(C)n3)ccc2Cl)cn1 is 36

The recorded growth for N#Cc1c(-c2ccc(Br)cc2)nc2c(N=Nc3ccc(S(N)(=O)=O)cc3)c(N)nn2c1N is 56.9

The recorded growth for O=C(Nc1ccc(Oc2cccc(Cl)c2)c(Cl)c1)c1cccnn1 is 77.7

The recorded growth for COc1cc(/C=C/C(=O)N2CCN(C(=O)c3cc(OC)c(OC)c(OC)c3)CC2)ccc1OCCCOc1cc2c(cc1OC)C(=O)N1CCC[C@H]1C=N2 is -48.1

The recorded growth for C=C1C(=O)O[C@H]2[C@H]1CC/C(COC(=O)NCc1ccc(Cn3c(=O)sn(-c4ccc(I)cc4)c3=O)cc1)=C\CC[C@@]1(C)O[C@@H]21 is 81.6

---

System: COLO 205 colon
Assay: NCI-60 one-dose screen, 48 h
Settings: 10 µM unless noted
The panel holds about 83,000 compounds, 20% with a hit somewhere; the sample as a whole holds those more often. Activity calls are given as the source filed them. The calls were made as follows: active = growth percent below 10; inactive = the rest.
Answer with one of the outcomes True = active, False = inactive

- chem-smiles: "O=C(NCc1ccc(Cn2c(=O)sn(-c3ccccc3)c2=O)cc1)OCc1ccc2cccc(O)c2n1"
  subject-of-test: "COLO 205 colon"
  assigned-class: "True"

q: Name the outcome recorded for N#Cc1c(-c2cccc(Cl)c2)cc(-c2cccnc2)[nH]c1=O in the assay.
a: False

q: Name the outcome recorded for COc1cc(/C=N/NC(=O)c2ccc(-n3cc(-c4ccccc4)nn3)cc2)cc(OC)c1OC in the assay.
a: False

q: Name the outcome recorded for COc1cc([C@@H](CCO)C[C@H](C)c2ccc3ccccc3c2)cc(OC)c1OC in the assay.
a: False

q: Name the outcome recorded for CCC(C)(C)c1ccc(Nc2ccc(Nc3ccc(C(C)(C)CC)cc3)cc2)cc1 in the assay.
a: False
